TESTED_SYSTEM: MDM2 (Homo sapiens, UniProt Q00987)
Sequence (Q00987 1-125): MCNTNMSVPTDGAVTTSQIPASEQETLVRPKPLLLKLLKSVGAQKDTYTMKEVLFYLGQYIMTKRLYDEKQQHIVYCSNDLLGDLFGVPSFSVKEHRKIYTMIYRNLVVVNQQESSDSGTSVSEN
TEST_NAME: Competitive fluorescence polarization assay for MDM2
Type: binding
ASSAY_CONTEXT: competitive FP assay, MDM2; read-out: IC50 (MDM2)
Where a SMILES comes first, the peptide text is derived from it. Bridges are numbered along the chain shown (N, C = ends). [ ]: non-standard residue; d: D form. R8 = C=CCCCCCC[C@@](C)(N)C(=O)O; S5 = C=CCCC[C@](C)(N)C(=O)O; Aib = CC(C)(N)C(=O)O
REPORTED_ENDPOINT: IC50

Exercise: Endpoint output: IC50 of CC(=O)N[C@@H](Cc1ccccc1)C(=O)N[C@]1(C)CCCCCCC=CCCC[C@@](C)(C(=O)N[C@@H](Cc2c[nH]cn2)C(=O)NC(C)(C)C(=O)N[C@@H](C)C(=O)N[C@H](C)C(N)=O)NC(=O)[C@H](CC(C)C)NC(=O)[C@H](CCC(N)=O)NC(=O)[C@H](Cc2ccc(O)cc2)NC(=O)[C@H](Cc2c[nH]c3ccccc23)NC(=O)[C@H](Cc2ccc(O)cc2)NC(=O)[C@H](C)NC1=O [compound 42] (Ac-F[R8]AYWYQL[S5]H[Aib]A[dA]-NH2; staple 2-9) . Value?
Key: 100 to 1000 nM

---

TESTED_SYSTEM: UniProt O15151
TEST_NAME: Competitive fluorescence polarization assay for MDMX
Type: binding
ASSAY_CONTEXT: competitive FP assay, read-out: Ki (MDMX)
REPORTED_ENDPOINT: Ki

INSERT INTO results (compound, result) VALUES
  ('CC(=O)N[C@@H](CC(C)C)C(=O)N[C@H](C(=O)N[C@@H](Cc1ccc(F)c(F)c1)C(=O)N[C@]1(C)CCCCCCC=CCCC[C@@](C)(C(=O)N[C@@H](CO)C(=O)N[C@@H](C)C(=O)N[C@@H](C)C(N)=O)NC(=O)[C@H](CC2CCC2)NC(=O)[C@H](CCC(N)=O)NC(=O)[C@H](C)NC(=O)[C@H](Cc2c[nH]c3ccccc23)NC(=O)[C@H](Cc2ccc(O)cc2)NC(=O)[C@H](CCC(=O)O)NC1=O)[C@@H](C)O (single isomer, unassigned)', '0.01 to 0.1 µM');

Read the next record carefully.
Exercise: Record CC[C@H](C)[C@H](NC(=O)[C@H](C)NC(=O)[C@H](C)NC(=O)[C@]1(C)CCCC=CCCCCCC[C@@](C)(NC(=O)[C@H](Cc2ccccc2)NC(=O)[C@@H](NC(=O)[C@H](CC(C)C)NC(C)=O)[C@@H](C)O)C(=O)N[C@@H](CCC(=O)O)C(=O)N[C@@H](Cc2ccc(C(=O)O)cc2)C(=O)N[C@@H](Cc2c[nH]c3cc(Cl)ccc23)C(=O)N[C@@H](C)C(=O)N[C@@H](CCC(N)=O)C(=O)N[C@@H](CC2CCC2)C(=O)N1)C(=O)N[C@H](C)C(N)=O (single isomer, unassigned) : what is its Ki with UniProt O15151?
Key: < 0.01 µM

---

TESTED_SYSTEM: MDMX (Homo sapiens, UniProt O15151)
Sequence (O15151 1-125): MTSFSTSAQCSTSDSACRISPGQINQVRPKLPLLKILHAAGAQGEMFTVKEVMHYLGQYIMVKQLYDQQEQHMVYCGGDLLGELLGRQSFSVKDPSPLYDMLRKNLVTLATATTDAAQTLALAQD
TEST_NAME: Competitive fluorescence polarization assay for MDMX
Assay type: binding
ASSAY_CONTEXT: competitive FP assay, read-out: IC50 (MDMX)
Where a SMILES comes first, the peptide text is derived from it. Bridges are numbered along the chain shown (N, C = ends). [ ]: non-standard residue; d: D form. R8 = C=CCCCCCC[C@@](C)(N)C(=O)O; Chg = N[C@H](C(=O)O)C1CCCCC1; S5 = C=CCCC[C@](C)(N)C(=O)O
REPORTED_ENDPOINT: IC50

Exercise: Could you share which IC50 value was measured for CC(=O)N[C@@H](CC(C)C)C(=O)N[C@H](C(=O)N[C@@H](Cc1ccccc1)C(=O)N[C@]1(C)CCCCCCC=CCCC[C@@](C)(C(=O)N[C@@H](CO)C(=O)N[C@@H](C)C(=O)N[C@H](C(N)=O)C2CCCCC2)NC(=O)[C@H](CC(C)C)NC(=O)[C@H](CCC(N)=O)NC(=O)[C@H](C)NC(=O)[C@H](Cc2c[nH]c3ccccc23)NC(=O)[C@H](Cc2ccc(O)cc2)NC(=O)[C@H](C)NC1=O)[C@@H](C)O [compound 9] (Ac-LTF[R8]AYWAQL[S5]SA[Chg]-NH2; staple 4-11) ?
Key: 100 to 1000 nM
